FYI, the data here is from PubChem BioAssay.

target: Mitogen-activated protein kinase 7 (Homo sapiens) (UniProt Q13164); assay: ERK5 transactivation activators in reporter cells, primary screen, cell-based, HTS (AID 1508626); details: HeLa Gal4-ERK5 transactivation, 18 h, at 5 µM;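 note: luciferase driven by Gal4-ERK5 fusion binding five Gal4 sites before minimal TATA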
Sequence (Q13164 whole entry, looked up, the tested form may be a part): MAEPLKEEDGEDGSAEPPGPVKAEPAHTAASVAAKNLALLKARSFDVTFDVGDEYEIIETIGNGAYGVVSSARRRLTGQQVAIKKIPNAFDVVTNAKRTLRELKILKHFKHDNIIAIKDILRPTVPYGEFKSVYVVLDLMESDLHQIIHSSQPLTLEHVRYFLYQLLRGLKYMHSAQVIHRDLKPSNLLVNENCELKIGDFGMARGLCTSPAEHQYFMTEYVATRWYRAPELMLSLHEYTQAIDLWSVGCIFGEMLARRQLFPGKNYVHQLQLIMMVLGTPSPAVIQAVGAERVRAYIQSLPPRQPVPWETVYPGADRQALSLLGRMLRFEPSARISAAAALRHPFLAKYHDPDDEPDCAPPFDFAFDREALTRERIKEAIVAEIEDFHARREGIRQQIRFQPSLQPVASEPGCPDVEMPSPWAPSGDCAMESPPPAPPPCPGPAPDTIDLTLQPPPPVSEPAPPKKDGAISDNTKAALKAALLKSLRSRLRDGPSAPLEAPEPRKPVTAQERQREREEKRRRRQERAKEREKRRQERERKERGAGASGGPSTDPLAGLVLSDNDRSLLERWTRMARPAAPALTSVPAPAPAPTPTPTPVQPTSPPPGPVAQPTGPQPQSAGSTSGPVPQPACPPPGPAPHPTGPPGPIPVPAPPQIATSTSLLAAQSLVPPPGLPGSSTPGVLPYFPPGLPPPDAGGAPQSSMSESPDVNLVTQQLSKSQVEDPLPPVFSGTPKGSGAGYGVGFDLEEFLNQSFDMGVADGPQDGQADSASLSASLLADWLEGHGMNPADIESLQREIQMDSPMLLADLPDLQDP
The source made the active and inactive calls.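 Rule for the calls: active = luciferase signal above three times the same-plate solvent-only control wells; inactive = the rest.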
Possible outcomes: yes (1) for active, no (0) for inactive

| molecule | category-label |
| --- | --- |
| CCCCCCNC(=O)n1cc(F)c(=O)[nH]c1=O | no (0) |
| CC(=O)S[C@@H]1CC2=CC(=O)CC[C@]2(C)[C@H]2CC[C@@]3(C)[C@@H](CC[C@@]34CCC(=O)O4)[C@H]12 | no (0) |
| CS(=O)(=O)OCCCCOS(C)(=O)=O | no (0) |
| CNCCCC12CCC(c3ccccc31)c1ccccc12 | no (0) |
| CCN(CC)CCCC(C)Nc1ccnc2cc(Cl)ccc12 (configuration not stated) | no (0) |
| CN(C)CCCN1c2ccccc2CCc2ccccc21 | no (0) |
| CNC(=O)Oc1ccc2c(c1)[C@]1(C)CCN(C)[C@@H]1N2C | no (0) |
| CCN(CC)CCOC(=O)C1(C2CCCCC2)CCCCC1 | yes (1) |
| O=C(CCCN1CC=C(n2c(=O)[nH]c3ccccc32)CC1)c1ccc(F)cc1 | no (0) |
| CCN(CC)C(=S)SSC(=S)N(CC)CC | no (0) |
| O=c1[nH]cc(F)c(=O)[nH]1 | no (0) |
| O=C(c1ccccc1)c1ccc2n1CCC2C(=O)O (configuration not stated) | no (0) |

----------
test: enhancers of glutamate uptake in motor neurons, MN-1 cell line (AID 1612); settings: MN-1 motor neuron cells, stronger effect = higher value;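 note: tested at 1 µM final; 0% = mean of DMSO vehicle wells on each plate; positive means more glutamate uptake than control and negative means less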
endpoint-name: glutamate uptake change (%)

| molecule | endpoint-name | measure-unit | recorded-result |
| --- | --- | --- | --- |
| C[C@@H]1O[C@@H](OC[C@H]2O[C@@H](Oc3c(-c4ccc(O)c(O)c4)oc4cc(O)cc(O)c4c3=O)[C@H](O)[C@@H](O)[C@@H]2O)[C@H](O)[C@H](O)[C@H]1O | glutamate uptake change | % | 32.8 |
| O=C1NC(=O)C(c2ccccc2)(c2ccccc2)N1 | glutamate uptake change | % | -8.41 |
| Cc1cccc(CN2CCN(C(c3ccccc3)c3ccc(Cl)cc3)CC2)c1 (stereo not drawn) | glutamate uptake change | % | 17.6 |
| O=S(=O)(O)CCS | glutamate uptake change | % | -0.24 |
| Cc1noc(NS(=O)(=O)c2ccc(N)cc2)c1C | glutamate uptake change | % | -4.32 |
| C=C(CC)C(=O)c1ccc(OCC(=O)O)c(Cl)c1Cl | glutamate uptake change | % | 5.34 |
| CNCCCC12CCC(c3ccccc31)c1ccccc12 | glutamate uptake change | % | 22.4 |
| Cc1cccc(Nc2ccccc2C(=O)O)c1C | glutamate uptake change | % | -12.3 |
| Nc1ncn([C@@H]2O[C@H](CO)[C@@H](O)[C@H]2O)c(=O)n1 | glutamate uptake change | % | 3.18 |
| COC(=O)Nc1nc2ccc(C(=O)c3ccccc3)cc2[nH]1 | glutamate uptake change | % | -29.4 |
| Nc1nc2c(ncn2COCCO)c(=O)[nH]1 | glutamate uptake change | % | 13.5 |
| Clc1ccc2c(c1)C(N1CCNCC1)=Nc1ccccc1O2 | glutamate uptake change | % | 35.9 |
| COc1ccc(Cl)cc1C(=O)NCCc1ccc(S(=O)(=O)NC(=O)NC2CCCCC2)cc1 | glutamate uptake change | % | 34.4 |
| CC1Cc2ccccc2N1NC(=O)c1ccc(Cl)c(S(N)(=O)=O)c1 (stereo not drawn) | glutamate uptake change | % | -15 |
| CO[C@@]1(NC(=O)Cc2cccs2)C(=O)N2C(C(=O)O)=C(COC(N)=O)CS[C@@H]21 | glutamate uptake change | % | -21.4 |
| Cc1cn([C@H]2C[C@H](N=[N+]=[N-])[C@@H](CO)O2)c(=O)[nH]c1=O | glutamate uptake change | % | -23.5 |
| S=c1nc[nH]c2nc[nH]c12 | glutamate uptake change | % | 12.1 |
| CCN(CC)CCOC(=O)c1ccc(N)cc1 | glutamate uptake change | % | 22.4 |
| CC1COc2c(N3CCN(C)CC3)c(F)cc3c(=O)c(C(=O)O)cn1c23 (stereo not drawn) | glutamate uptake change | % | -4.74 |
| CC(C)[N+](C)(CCOC(=O)C1c2ccccc2Oc2ccccc21)C(C)C | glutamate uptake change | % | -0.12 |
| NS(=O)(=O)c1cc(C2(O)NC(=O)c3ccccc32)ccc1Cl (stereo not drawn) | glutamate uptake change | % | -2.06 |
| Cc1onc(-c2c(Cl)cccc2Cl)c1C(=O)N[C@@H]1C(=O)N2[C@@H]1SC(C)(C)[C@@H]2C(=O)O | glutamate uptake change | % | -10.2 |
| CSc1ccc2c(c1)N(CCC1CCCCN1C)c1ccccc1S2 (stereo not drawn) | glutamate uptake change | % | -2.39 |
| CCCN1C[C@H](CSC)C[C@@H]2c3cccc4[nH]cc(c34)C[C@H]21 | glutamate uptake change | % | -2.13 |
| NS(=O)(=O)c1cc2c(cc1C(F)(F)F)NCNS2(=O)=O | glutamate uptake change | % | -18.5 |
| OCCN1CCN(CCCN2c3ccccc3Sc3ccc(C(F)(F)F)cc32)CC1 | glutamate uptake change | % | -9.51 |
| CCCNC(C)C(=O)Nc1ccccc1C (stereo not drawn) | glutamate uptake change | % | 3.66 |
| O=C1c2c(O)ccc(O)c2C(=O)c2c(NCCNCCO)ccc(NCCNCCO)c21 | glutamate uptake change | % | -30.1 |
| COc1ccccc1OCC(O)COC(N)=O (stereo not drawn) | glutamate uptake change | % | -5.42 |
| CCN(CCO)CCCC(C)Nc1ccnc2cc(Cl)ccc12 (stereo not drawn) | glutamate uptake change | % | 0 |
| CCN(CC)CC(=O)Nc1c(C)cccc1C | glutamate uptake change | % | 0.81 |
| CN1CCN(CCCN2c3ccccc3Sc3ccc(C(F)(F)F)cc32)CC1 | glutamate uptake change | % | 16.2 |
| CC(=O)CCCCn1c(=O)c2c(ncn2C)n(C)c1=O | glutamate uptake change | % | -0.27 |
| CC(C)Cc1ccc(C(C)C(=O)O)cc1 (stereo not drawn) | glutamate uptake change | % | 16.3 |
| OCCN(CCO)c1nc(N2CCCCC2)c2nc(N(CCO)CCO)nc(N3CCCCC3)c2n1 | glutamate uptake change | % | 32 |
| CC(C)NCC(O)c1cc(O)cc(O)c1 (stereo not drawn) | glutamate uptake change | % | -18.3 |
| O=C(CCCN1CC=C(n2c(=O)[nH]c3ccccc32)CC1)c1ccc(F)cc1 | glutamate uptake change | % | 4.12 |
| OC(CCN1CCCC1)(c1ccccc1)C1CCCCC1 (stereo not drawn) | glutamate uptake change | % | 2.81 |
| Cc1c(OCC(F)(F)F)ccnc1CS(=O)c1nc2ccccc2[nH]1 (stereo not drawn) | glutamate uptake change | % | -0.46 |
| CCCNCC(O)COc1ccccc1C(=O)CCc1ccccc1 (stereo not drawn) | glutamate uptake change | % | 9.21 |
| CCN(CC)CCOC(=O)C1(C2CCCCC2)CCCCC1 | glutamate uptake change | % | -7.11 |
| CC(=O)CC(c1ccccc1)c1c(O)c2ccccc2oc1=O (stereo not drawn) | glutamate uptake change | % | -2.55 |
| CCCc1cc(=O)[nH]c(=S)[nH]1 | glutamate uptake change | % | 4.57 |

----------
experiment: stimulators of nuclear beta-catenin in C2C12, primary screen, imaging, WNT3A-conditioned medium, mouse C2C12, NPC library (AID 1117326); details: at 10 µM, stronger effect = higher value
Calls of active or inactive are those of the source. No stated cut-off is given here; in the data, active means nuclear beta-catenin stimulation mostly above about 4.2% (no sharp cut-off); inactive means mostly below about 10%.
Each entry below carries its recorded nuclear beta-catenin stimulation.

| molecule | nuclear beta-catenin stimulation |
| --- | --- |
| CN1C(C(=O)Nc2ccccn2)=C(O)c2ccccc2S1(=O)=O | 6.3% (inactive) |
| CCCC(=O)O[C@]1(C(=O)CCl)[C@@H](C)C[C@H]2[C@@H]3CCC4=CC(=O)C=C[C@]4(C)[C@@]3(F)C(=O)C[C@@]21C | 3.8% (inactive) |
| CCN1/C(=C/C=C/c2sc3ccccc3[n+]2CC)Sc2ccccc21 | 1.2% (inactive) |
| C=C1C(=C/C=C2\CCC[C@]3(C)[C@@H]([C@H](C)/C=C/[C@@H](O)C4CC4)CC[C@@H]23)C[C@@H](O)C[C@@H]1O | 2.6% (inactive) |
| Cc1ccccc1N=Nc1ccc(N=Nc2c(O)ccc3ccccc23)c(C)c1 | 4.6% (inactive) |
| CCc1ccc(C(=O)C(C)CN2CCCCC2)cc1 (centres undefined) | -0.3% (inactive) |
| CCCCCCCCCCC(CO)CCCCCCCC (centres undefined) | -0.6% (inactive) |
| O=C(Nc1ccc(Cl)c(Cl)c1)C1CC1 | 0.1% (inactive) |
| NCC[C@H](O)C(=O)N[C@@H]1C[C@H](N)[C@@H](O[C@H]2O[C@H](CN)[C@@H](O)[C@H](O)[C@@H]2O)[C@H](O)[C@@H]1O[C@H]1O[C@H](CO)[C@@H](O)[C@H](N)[C@@H]1O | 0.4% (inactive) |
| CCOC(=O)Oc1ccc(CCNC(=O)[C@H](CCSC)NC(C)=O)cc1OC(=O)OCC | -0.7% (inactive) |
| Cc1cc(CCCOc2c(C)cc(-c3noc(C(F)(F)F)n3)cc2C)on1 | 9.7% (inactive) |
| CCN(Cc1ccncc1)C(=O)C(CO)c1ccccc1 (centres undefined) | 0.5% (inactive) |
| CCCCOC(=O)CCCCCCCCC(=O)OCCCC | 1.4% (inactive) |
| Oc1cccc(-c2c3nc(c(-c4cccc(O)c4)c4ccc([nH]4)c(-c4cccc(O)c4)c4nc(c(-c5cccc(O)c5)c5ccc2[nH]5)CC4)C=C3)c1 | 24.3% (inactive) |
| CC(=O)N1C[C@H](O)C[C@H]1C(=O)O | 0.5% (inactive) |
| O=C1C(c2[nH]c3ccc(S(=O)(=O)O)cc3c2O)=Nc2ccc(S(=O)(=O)O)cc21 | -1.7% (inactive) |
| NC[C@H]1O[C@H](O[C@H]2[C@@H](O)[C@@H](O[C@H]3O[C@H](CO)[C@@H](O)[C@H](N)[C@@H]3O)[C@H](N)C[C@@H]2N)[C@H](N)C[C@H]1O | 0.2% (inactive) |
| CN1CCN(C(=O)C2CCCCC2)CC1 | 0% (inactive) |
| CN(C)CCN(Cc1ccccc1)c1ccccn1 | 1.1% (inactive) |
